Species on record: Homo sapiens
Assay: Selectivity index, ratio of Ki for RARbeta/RXRalpha (unknown origin) to Ki for RARgamma/RXRalpha (unknown origin) expressed in baculovirus expression system
readout.name: Ratio Ki

## Task Give Ratio Ki for the following compound: CC(C)(C)c1cc(-c2cc(-c3ccc(C(=O)O)cc3)nn2-c2ccc(S(C)(=O)=O)cc2)cc(C(C)(C)C)c1
## Result 228

## Task Give Ratio Ki for CC(C)(C)c1cc(-c2cc(-c3ccc(C(=O)O)cc3)nn2-c2ccc(C(N)=O)cc2)cc(C(C)(C)C)c1
## Result > 2210

## Task Give me measured Ratio Ki, please, for this compound: CC(C)(C)c1cc(-c2cc(-c3ccc(C(=O)O)cc3)nn2-c2ccc(C(=O)N3CCOCC3)cc2)cc(C(C)(C)C)c1
## Result > 1320

## Task # return recorded Ratio Ki for input CN1CCN(C(=O)c2ccc(-n3nc(-c4ccc(C(=O)O)cc4)cc3-c3cc(C(C)(C)C)cc(C(C)(C)C)c3)cc2)CC1
## Result > 2730

## Task Please list Ratio Ki recorded for the compound CN(C)S(=O)(=O)c1ccc(-n2nc(-c3ccc(C(=O)O)cc3)cc2-c2cc(C(C)(C)C)cc(C(C)(C)C)c2)cc1
## Result > 725

## Task Input CN(C)C(=O)c1ccc(-n2nc(-c3ccc(C(=O)O)cc3)cc2-c2cc(C(C)(C)C)cc(C(C)(C)C)c2)cc1 , output reported Ratio Ki.
## Result > 1340

## Task Indicate the recorded Ratio Ki value for this compound: CC1(C)CCC(C)(C)c2cc(-c3cc(-c4ccc(C(=O)O)cc4)nn3-c3ccc(S(C)(=O)=O)cc3)ccc21
## Result 10

###

Assay: AUC in rat at 30 mg/kg, po administered for 14 days
Type: ADME, organism-based
Conditions: in vivo
readout.name: AUC at 336 h (ng·h/mL)
The figure you give is taken to be in ng·h/mL; do not add the unit.

## Task Identify AUC at 336 h associated with the molecule CN1CCN(C(=O)c2ccc(-n3nc(-c4ccc(C(=O)O)cc4)cc3-c3cc(C(C)(C)C)cc(C(C)(C)C)c3)cc2)CC1
## Result 36800

###

Biological target: Retinoic acid receptor RXR-alpha/gamma (Homo sapiens, UniProt P13631+P19793)
Sequence (P13631 whole entry): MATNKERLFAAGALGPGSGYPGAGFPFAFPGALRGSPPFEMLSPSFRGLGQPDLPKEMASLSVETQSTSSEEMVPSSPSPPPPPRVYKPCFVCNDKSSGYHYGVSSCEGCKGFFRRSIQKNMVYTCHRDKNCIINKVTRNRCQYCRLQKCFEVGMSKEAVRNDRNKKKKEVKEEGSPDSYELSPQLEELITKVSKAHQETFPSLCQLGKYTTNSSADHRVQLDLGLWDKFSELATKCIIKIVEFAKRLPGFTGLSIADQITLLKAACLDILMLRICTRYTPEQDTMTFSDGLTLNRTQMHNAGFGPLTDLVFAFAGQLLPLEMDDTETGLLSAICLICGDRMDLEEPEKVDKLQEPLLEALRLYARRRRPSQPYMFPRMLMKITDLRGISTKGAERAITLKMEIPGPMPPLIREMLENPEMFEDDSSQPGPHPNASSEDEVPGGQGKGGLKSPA
Sequence (P19793 whole entry): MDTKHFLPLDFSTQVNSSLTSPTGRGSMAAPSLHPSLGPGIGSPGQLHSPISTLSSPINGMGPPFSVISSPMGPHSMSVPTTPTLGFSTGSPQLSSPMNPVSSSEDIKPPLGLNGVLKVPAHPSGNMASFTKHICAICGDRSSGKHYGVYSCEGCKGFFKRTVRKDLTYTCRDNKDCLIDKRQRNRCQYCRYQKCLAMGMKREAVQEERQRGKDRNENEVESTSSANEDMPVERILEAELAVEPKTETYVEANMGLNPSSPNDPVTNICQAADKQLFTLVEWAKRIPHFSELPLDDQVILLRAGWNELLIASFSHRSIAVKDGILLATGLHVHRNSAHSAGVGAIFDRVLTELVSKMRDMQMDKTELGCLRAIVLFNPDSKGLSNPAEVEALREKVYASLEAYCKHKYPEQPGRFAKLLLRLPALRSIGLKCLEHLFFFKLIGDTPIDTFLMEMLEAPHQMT
Experiment: Displacement of [3H]-TTNPB from RARgamma/RXRalpha (unknown origin) expressed in baculovirus expression system by scintillation proximity assay
Task for the reader: assign each of the following compounds its reported Ki.
API: value field is a number in nM; no unit string.

## Task Answer with the recorded Ki of CN(C)C(=O)c1ccc(-n2nc(-c3ccc(C(=O)O)cc3)cc2-c2cc(C(C)(C)C)cc(C(C)(C)C)c2)cc1 only.
## Result 2.2

## Task Provide only the value of recorded Ki for Cc1cc(-c2cc(-c3ccc(C(=O)O)cc3)nn2-c2ccc(S(C)(=O)=O)cc2)cc(C(C)(C)C)c1
## Result 1.1

## Task Indicate the recorded Ki value for this compound: CC(C)c1cc(-c2cc(-c3ccc(C(=O)O)cc3)nn2-c2ccc(S(C)(=O)=O)cc2)cc(C(C)(C)C)c1
## Result 1.6

###

Assay: Oral bioavailability in rat at 10 mg/kg measured up to 14 days
Type: ADME, organism-based
Conditions: in vivo
readout.name: bioavailability

## Task Quickly give me recorded bioavailability for CN1CCN(C(=O)c2ccc(-n3nc(-c4ccc(C(=O)O)cc4)cc3-c3cc(C(C)(C)C)cc(C(C)(C)C)c3)cc2)CC1
## Result 26%

###

Molecular target: Retinoic acid receptor RXR-alpha/gamma (Homo sapiens, UniProt P13631+P19793)
Experiment: Displacement of [3H]-TTNPB from RARgamma/RXRalpha (unknown origin) expressed in baculovirus expression system by scintillation proximity assay
For each record, write down the corresponding pKi.
# log scale: pKi equals minus log10 of the concentration in mol/L

## Task Tell me its pKi on Retinoic acid receptor RXR-alpha/gamma (Homo sapiens, UniProt P13631+P19793): CC(C)(C)c1cc(-c2cc(-c3ccc(C(=O)O)cc3)nn2-c2ccc(C(N)=O)cc2)cc(C(C)(C)C)c1
## Result 8.85

## Task Print Retinoic acid receptor RXR-alpha/gamma (Homo sapiens, UniProt P13631+P19793) pKi for CC1(C)CC=C(c2ccccc2)c2cc(/C=C/c3ccc(C(=O)O)cc3)ccc21 .
## Result 7.76

## Task Provide pKi, recorded with Retinoic acid receptor RXR-alpha/gamma (Homo sapiens, UniProt P13631+P19793), of CC(C)(C)c1cc(-c2cc(-c3ccc(C(=O)O)cc3)nn2-c2ccc(S(C)(=O)=O)cc2)cc(C(C)(C)C)c1
## Result 8.36

## Task Enter pKi (test system Retinoic acid receptor RXR-alpha/gamma (Homo sapiens, UniProt P13631+P19793)) for CN(C)S(=O)(=O)c1ccc(-n2nc(-c3ccc(C(=O)O)cc3)cc2-c2cc(C(C)(C)C)cc(C(C)(C)C)c2)cc1
## Result 8.39

## Task Give reported pKi for CC(C)(C)c1cccc(-c2cc(-c3ccc(C(=O)O)cc3)nn2-c2ccc(S(C)(=O)=O)cc2)c1 (Retinoic acid receptor RXR-alpha/gamma (Homo sapiens, UniProt P13631+P19793))
## Result 8.96

## Task Retrieve pKi on Retinoic acid receptor RXR-alpha/gamma (Homo sapiens, UniProt P13631+P19793); query CC(C)(C)c1cc(-c2cc(-c3ccc(C(=O)O)cc3)nn2-c2ccc(C(=O)N3CCOCC3)cc2)cc(C(C)(C)C)c1
## Result 8.64

## Task Fetch value of pKi on Retinoic acid receptor RXR-alpha/gamma (Homo sapiens, UniProt P13631+P19793) for CC1(C)CCC(C)(C)c2cc(-c3cc(-c4ccc(C(=O)O)cc4)nn3-c3ccc(S(C)(=O)=O)cc3)ccc21 .
## Result 9.57

## Task System Retinoic acid receptor RXR-alpha/gamma (Homo sapiens, UniProt P13631+P19793). Read-out pKi. Item CN1CCN(C(=O)c2ccc(-n3nc(-c4ccc(C(=O)O)cc4)cc3-c3cc(C(C)(C)C)cc(C(C)(C)C)c3)cc2)CC1 . Report value.
## Result 8.96
